Each record here notes measured % Inhibition at 10 μM.
Target desc: MAP4K-1 enzyme (Homo sapiens)
Procedure summary: FRET one step binding assay (tracer displacement)
Applied conditions: 10 μM compound; 10 µM
Measurement label: % Inhibition at 10 μM (%)

Compound: COc1cc2c(cc1Nc1ncc(Cl)c(Nc3cc(OS(=O)(=O)F)ccc3P(C)(C)=O)n1)C(C)N(C)CC2 (single isomer, unassigned; isomer 2)
Value reported: 89.25

Compound: COc1cc2c(cc1Nc1ncc(Cl)c(Nc3ncc(OS(=O)(=O)F)cc3P(C)(C)=O)n1)C(C)N(C)CC2 (single isomer, unassigned; isomer 2)
Value reported: 85.52

Compound: COc1cc2c(cc1Nc1ncc(Cl)c(Nc3cc(OS(=O)(=O)F)ccc3P(C)(C)=O)n1)CN(C)C(C)C2 (single isomer, unassigned; isomer 2)
Value reported: 83.76

Compound: COc1cc2c(cc1Nc1ncc(Cl)c(Nc3ccc(OS(=O)(=O)F)cc3P(C)(C)=O)n1)CN(C)C(C)C2 (single isomer, unassigned; isomer 2)
Value reported: 86.64

Compound: COc1cc2c(cc1Nc1ncc(Cl)c(Nc3ccc(OS(=O)(=O)F)cc3P(C)(C)=O)n1)C(C)N(C)CC2 (single isomer, unassigned; isomer 2)
Value reported: 82.70

* * *

Target desc: MAP4K-1 enzyme (Homo sapiens, UniProt Q92918)
Sequence (Q92918 whole entry): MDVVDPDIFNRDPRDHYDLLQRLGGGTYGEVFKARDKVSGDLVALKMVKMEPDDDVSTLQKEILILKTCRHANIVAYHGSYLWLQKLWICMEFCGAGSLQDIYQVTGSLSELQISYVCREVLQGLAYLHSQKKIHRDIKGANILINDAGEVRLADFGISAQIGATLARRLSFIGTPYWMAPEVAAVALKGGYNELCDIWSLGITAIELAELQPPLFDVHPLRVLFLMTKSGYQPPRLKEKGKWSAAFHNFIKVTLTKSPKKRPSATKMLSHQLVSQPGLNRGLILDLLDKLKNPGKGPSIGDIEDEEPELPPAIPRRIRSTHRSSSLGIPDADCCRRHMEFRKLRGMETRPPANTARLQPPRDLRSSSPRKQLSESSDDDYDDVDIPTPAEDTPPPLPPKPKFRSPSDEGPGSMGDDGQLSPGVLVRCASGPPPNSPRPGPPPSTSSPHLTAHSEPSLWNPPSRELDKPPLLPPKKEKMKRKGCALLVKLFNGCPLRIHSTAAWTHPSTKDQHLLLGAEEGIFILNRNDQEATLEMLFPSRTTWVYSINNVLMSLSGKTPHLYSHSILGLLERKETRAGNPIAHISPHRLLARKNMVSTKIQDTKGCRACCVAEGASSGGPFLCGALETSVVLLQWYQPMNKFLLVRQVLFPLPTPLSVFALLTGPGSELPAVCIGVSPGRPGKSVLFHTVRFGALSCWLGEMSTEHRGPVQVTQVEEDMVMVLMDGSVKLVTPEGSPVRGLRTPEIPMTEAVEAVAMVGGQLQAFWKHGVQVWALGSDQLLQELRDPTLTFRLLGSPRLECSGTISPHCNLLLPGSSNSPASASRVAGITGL
Procedure summary: FRET one step binding assay (tracer displacement)
Applied conditions: 10 μM compound
Counter-ions that a name gives are not always drawn.

Molecule: COc1cc2c(cc1Nc1ncc(Cl)c(Nc3ccc(C(F)F)cc3P(C)(C)=O)n1)CN(C)CC2
inhibition at 10 µM / %: 93.7

Molecule: COc1cc2c(cc1Nc1ncc(Cl)c(Nc3ccc(OS(=O)(=O)F)cc3P(C)(C)=O)n1)CN(CC(F)F)CC2 [Example 8, dihydrochloride]
inhibition at 10 µM / %: 80

Molecule: [2H]C([2H])([2H])N1CCc2cc(OC)c(Nc3ncc(Cl)c(Nc4ccc(OS(=O)(=O)F)cc4P(C)(C)=O)n3)cc2C1 [Example 4, dihydrochloride]
inhibition at 10 µM / %: 78.4

* * *

# Lookup of reported % Inhibition at 1 μM keyed by entry
Target desc: MAP4K-1 enzyme (Homo sapiens, UniProt Q92918)
Procedure summary: FRET one step binding assay (tracer displacement)
Applied conditions: 1 μM compound; 1 µM

Compound: COc1cc2c(cc1Nc1ncc(Cl)c(Nc3ccc(OS(=O)(=O)F)cc3P(C)(C)=O)n1)CN(C)C(C)C2 (single isomer, unassigned; isomer 2) [Example 34]
% Inhibition at 1 μM (%): 84.26
//
Compound: COc1cc2c(cc1Nc1ncc(Cl)c(Nc3ccc(OS(=O)(=O)F)cc3P(C)(C)=O)n1)C(C)N(C)CC2 (single isomer, unassigned; isomer 2) [Example 30]
% Inhibition at 1 μM (%): 79.12
//
Compound: COc1cc2c(cc1Nc1ncc(Cl)c(Nc3cc(OS(=O)(=O)F)ccc3P(C)(C)=O)n1)CN(C)C(C)C2 (single isomer, unassigned; isomer 2) [Example 36]
% Inhibition at 1 μM (%): 85.29
//
Compound: COc1cc2c(cc1Nc1ncc(Cl)c(Nc3ncc(OS(=O)(=O)F)cc3P(C)(C)=O)n1)C(C)N(C)CC2 (single isomer, unassigned; isomer 2) [Example 24]
% Inhibition at 1 μM (%): 86.68
//
Compound: COc1cc2c(cc1Nc1ncc(Cl)c(Nc3cc(OS(=O)(=O)F)ccc3P(C)(C)=O)n1)C(C)N(C)CC2 (single isomer, unassigned; isomer 2) [Example 32]
% Inhibition at 1 μM (%): 84.51

* * *

Target desc: MAP4K-1 enzyme (Homo sapiens)
Procedure summary: FRET one step binding assay (tracer displacement)
Applied conditions: 1 μM compound
Counter-ions that a name gives are not always drawn.
Output Y for inhibition at 1 µM not less than 90%; output N otherwise.

Compound: CCN1CCc2cc(OC)c(Nc3ncc(Cl)c(Nc4ccc(OS(=O)(=O)F)cc4P(C)(C)=O)n3)cc2C1 [Example 9, dihydrochloride]
Assigned label: N

Compound: COc1cc2c(cc1Nc1ncc(Cl)c(Oc3ccc(OS(=O)(=O)F)cc3P(C)(C)=O)n1)CN(C)CC2 [Example 60, dihydrochloride]
Assigned label: N

Compound: COc1cc2c(cc1Nc1ncc(Cl)c(Oc3ccccc3P(C)(C)=O)n1)CN(C)CC2
Assigned label: N

Compound: COc1cc2c(cc1Nc1ncc(Cl)c(Nc3ccc(C(F)F)cc3P(C)(C)=O)n1)CN(C)CC2
Assigned label: Y

Compound: COc1cc2c(cc1Nc1ncc(Cl)c(Nc3ccc(S(C)(=N)=O)cc3P(C)(C)=O)n1)CN(C)CC2 (stereo not shown)
Assigned label: Y

Compound: COc1cc2c(cc1Nc1ncc(Cl)c(Nc3ccc(O)cc3P(C)(C)=O)n1)CN(C)CC2 [Example 1, dihydrochloride]
Assigned label: N

Compound: COc1cc2c(cc1Nc1ncc(Cl)c(Nc3c(C)cc(OS(=O)(=O)F)cc3P(C)(C)=O)n1)CN(C)CC2 [Example 15, dihydrochloride]
Assigned label: N

* * *

Target desc: MAP4K-1 enzyme (Homo sapiens)
Procedure summary: FRET one step binding assay (tracer displacement)
Applied conditions: 1 μM compound
Counter-ions that a name gives are not always drawn.
// reported inhibition at 1 µM per item

Compound: COc1cc2c(cc1Nc1ncc(Cl)c(Nc3cc(OS(=O)(=O)F)ccc3P(C)(C)=O)n1)C(C)N(C)CC2 (single isomer, unassigned; isomer 1) [Example 31]
inhibition at 1 µM: 84.4%
--
Compound: COc1cc2c(cc1Nc1ncc(Cl)c(Nc3ccc(OCC(F)F)cc3P(C)(C)=O)n1)CN(C)CC2 [Example 46]
inhibition at 1 µM: 73.6%
--
Compound: COc1cc2c(cc1Nc1ncc(Cl)c(Nc3ccc(OC(F)(F)F)cc3P(C)(C)=O)n1)CN(C)CC2 [Example 47]
inhibition at 1 µM: 91.4%
--
Compound: [2H]C([2H])([2H])Oc1cc2c(cc1Nc1ncc(Cl)c(Nc3ccc(OS(=O)(=O)F)cc3P(C)(C)=O)n1)CN(C([2H])([2H])[2H])CC2 [Example 6, dihydrochloride]
inhibition at 1 µM: 80%
--
Compound: COc1cc2c(cc1Nc1ncc(Cl)c(Nc3ncc(OS(=O)(=O)F)cc3P(C)(C)=O)n1)CN(C)CC2 [Example 20, dihydrochloride]
inhibition at 1 µM: 80.1%
--
Compound: [2H]C([2H])([2H])Oc1cc2c(cc1Nc1ncc(Cl)c(Nc3ccc(OS(=O)(=O)F)cc3P(C)(C)=O)n1)C([2H])([2H])NCC2 [Example 40, dihydrochloride]
inhibition at 1 µM: 83.3%
--
Compound: COc1cc2c(cc1Nc1ncc(Cl)c(Nc3ccc(OS(=O)(=O)F)cc3P(C)(C)=O)n1)C(=O)N(C)CC2 [Example 17]
inhibition at 1 µM: 86.6%
--
Compound: CP(C)(=O)c1cc(OS(=O)(=O)F)ccc1Nc1nc(Nc2cc3n(n2)CCNC3)ncc1Cl [Example 42, dihydrochloride]
inhibition at 1 µM: 84%
--
Compound: COc1cc2c(cc1Nc1ncc(Cl)c(Nc3c(F)cc(OS(=O)(=O)F)cc3P(C)(C)=O)n1)CN(C)CC2 [Example 14, dihydrochloride]
inhibition at 1 µM: 89.7%
--
Compound: COc1cc2c(cc1Nc1ncc(Cl)c(Nc3ccc(OS(=O)(=O)F)cc3P(C)(C)=O)n1)CN(CCF)CC2 [Example 13, dihydrochloride]
inhibition at 1 µM: 79.7%
--
Compound: COc1cc2c(cc1Nc1ncc(Cl)c(Nc3ccc(N(C)S(=O)(=O)F)cc3P(C)(C)=O)n1)CN(C)CC2 [Example 43, dihydrochloride]
inhibition at 1 µM: 80%
--
Compound: COc1cc2c(cc1Nc1ncc(Cl)c(Nc3ccc(OS(=O)(=O)F)cc3P(C)(C)=O)n1)CN(C)CC2 [Example 2, dihydrochloride]
inhibition at 1 µM: 86%
--
Compound: [2H]C([2H])([2H])Oc1cc2c(cc1Nc1ncc(Cl)c(Nc3ccc(OS(=O)(=O)F)cc3P(C)(C)=O)n1)CNCC2 [Example 39, dihydrochloride]
inhibition at 1 µM: 75.1%
--
Compound: COc1cc2c(cc1Nc1ncc(Cl)c(Nc3ccc(OS(=O)(=O)F)cc3P(C)(C)=O)n1)CN(CC(F)F)CC2 [Example 8, dihydrochloride]
inhibition at 1 µM: 63.7%
--
Compound: COc1cc2c(cc1Nc1ncc(Cl)c(Nc3ccc(N(C)S(=O)(=O)F)cc3P(C)(C)=O)n1)C(C)N(C)CC2 (racemic) [Example 44, dihydrochloride]
inhibition at 1 µM: 81.6%
--
Compound: COc1cc2c(cc1Nc1ncc(Cl)c(Nc3ccc(C(=O)N(C)CCF)cc3P(C)(C)=O)n1)CN(C)CC2 [Example 52]
inhibition at 1 µM: 88.2%
--
Compound: CN1CCc2cc(OC(F)F)c(Nc3ncc(Cl)c(Nc4ccc(OS(=O)(=O)F)cc4P(C)(C)=O)n3)cc2C1 [Example 10, dihydrochloride]
inhibition at 1 µM: 92.3%

* * *

Target desc: MAP4K-1 enzyme (Homo sapiens)
Procedure summary: FRET one step binding assay (tracer displacement)
Applied conditions: 1 μM compound
Where a name gives a salt, the structure may show the parent alone.

Compound: COc1cc2c(cc1Nc1ncc(Cl)c(Nc3ccc(NC(=O)CCl)cc3P(C)(C)=O)n1)CN(C)CC2 [Example 56, hydrochloride]
inhibition at 1 µM (%): 88.7
//
Compound: COc1cc2c(cc1Nc1ncc(Cl)c(Nc3ccc(OS(=O)(=O)F)cc3P(C)(C)=O)n1)C(C)N(C)CC2 (racemic) [Example 12, dihydrochloride]
inhibition at 1 µM (%): 87.5
//
Compound: CN1CCc2cc(O)c(Nc3ncc(Cl)c(Nc4ccc(OS(=O)(=O)F)cc4P(C)(C)=O)n3)cc2C1 [Example 61, dihydrochloride]
inhibition at 1 µM (%): 89.6
